Target: T1, Terbium (Tb) labeled-SNAP tagged ROBO2 expressed on HEK293 cells (Homo sapiens (Human), UniProt Q9HCK4 22-1378, terbium label on the SNAP tag)
T1 construct: also called Tb-labeled ROBO2 cells; ROBO2 expressing cells; not shown: SNAP tag
T1 sequence: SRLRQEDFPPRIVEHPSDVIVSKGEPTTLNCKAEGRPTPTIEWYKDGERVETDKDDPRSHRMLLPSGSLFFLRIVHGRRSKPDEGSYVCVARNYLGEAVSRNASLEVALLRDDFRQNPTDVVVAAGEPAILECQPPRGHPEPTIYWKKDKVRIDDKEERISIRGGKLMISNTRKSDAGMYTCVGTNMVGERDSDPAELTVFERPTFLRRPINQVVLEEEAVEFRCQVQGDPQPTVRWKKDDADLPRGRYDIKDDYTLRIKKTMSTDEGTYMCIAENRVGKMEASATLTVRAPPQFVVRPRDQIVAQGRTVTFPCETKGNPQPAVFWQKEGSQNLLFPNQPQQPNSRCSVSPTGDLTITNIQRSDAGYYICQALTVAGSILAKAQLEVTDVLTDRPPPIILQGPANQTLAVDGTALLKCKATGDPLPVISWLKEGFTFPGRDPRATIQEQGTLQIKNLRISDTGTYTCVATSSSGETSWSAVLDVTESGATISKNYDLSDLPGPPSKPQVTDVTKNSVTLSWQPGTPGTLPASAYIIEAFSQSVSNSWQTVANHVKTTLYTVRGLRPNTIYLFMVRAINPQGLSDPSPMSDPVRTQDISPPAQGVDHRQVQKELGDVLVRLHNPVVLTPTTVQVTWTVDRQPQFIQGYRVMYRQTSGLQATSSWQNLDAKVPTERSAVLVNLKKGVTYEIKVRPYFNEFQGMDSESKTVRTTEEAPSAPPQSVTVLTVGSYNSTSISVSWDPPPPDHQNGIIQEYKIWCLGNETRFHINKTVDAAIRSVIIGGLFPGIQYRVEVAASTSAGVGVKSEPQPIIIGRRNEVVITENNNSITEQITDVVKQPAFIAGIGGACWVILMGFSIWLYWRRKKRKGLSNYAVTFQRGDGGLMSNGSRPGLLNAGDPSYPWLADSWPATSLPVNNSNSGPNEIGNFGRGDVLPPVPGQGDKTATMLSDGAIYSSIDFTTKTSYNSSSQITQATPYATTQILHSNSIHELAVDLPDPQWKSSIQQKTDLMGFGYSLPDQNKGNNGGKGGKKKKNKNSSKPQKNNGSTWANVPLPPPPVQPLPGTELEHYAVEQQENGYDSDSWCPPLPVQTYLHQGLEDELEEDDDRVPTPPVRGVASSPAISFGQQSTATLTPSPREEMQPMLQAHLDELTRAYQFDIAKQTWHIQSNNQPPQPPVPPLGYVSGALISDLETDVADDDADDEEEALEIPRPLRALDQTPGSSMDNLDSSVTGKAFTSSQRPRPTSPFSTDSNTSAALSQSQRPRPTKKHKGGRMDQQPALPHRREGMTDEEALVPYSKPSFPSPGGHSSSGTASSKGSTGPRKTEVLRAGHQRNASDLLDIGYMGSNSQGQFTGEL
Test: HTRF competition, competitor d2-SLIT2-N, ROBO2 HEK293 cells
result type: pIC50
In plain terms, pIC50 is the concentration in mol/L turned into minus its base-10 logarithm.

CTIR2-3 (antibody, human IgG1, kappa, V domains shown, CDR-shuffled IgG) VH: EVQLVQSGAEVKKPGASVKVSCKASGYTFTGYYMHWVRQAPGQGLEWMGWINPRSGATNFPQKFQGRVTMTRDTSITTAYMDLSRLRSDDTAVYYCARESGDDAFDIWGQGTMVTVSS VL: DIVMTQSPSSLSASVGDRVTITCRASQSISSYLNWYQQKPGKAPKLLIYAASSLQYGVPSRFSGSGSGTDFTLTISSLQPEDFATYYCQQSVGLFFGGGTKVEIKR: 9.81
CTIR2-14 (antibody, human IgG1, kappa, V domains shown, CDR-shuffled IgG) VH: EVQLVQSGAEVKKPGASVKVSCKASGYTFRGYAMHWVRQAPGQGLEWMGWIDPRTGLTKFPQKFQGRVTMTRDTSITTAYMDLSRLRSDDTAVYYCARESGDDAFDIWGQGTMVTVSS VL: DIVMTQSPSSLSASVGDRVTITCRASQKISSYLNWYQQKPGKAPKLLIYAASSLQYGVPSRFSGSGSGTDFTLTISSLQPEDFATYYCQQSLELGFGGGTKVEIKR: 10.43

Exercise: Let me know recorded pIC50 for CTIR2-8 (antibody, human IgG1, kappa, V domains shown, CDR-shuffled IgG) VH: EVQLVQSGAEVKKPGASVKVSCKASGYTFTGYYMHWVRQAPGQGLEWMGWINPKSGATNFPQKFQGRVTMTRDTSITTAYMDLSRLRSDDTAVYYCARESGDDAFDIWGQGTMVTVSS VL: DIVMTQSPSSLSASVGDRVTITCRASQKISSYLNWYQQKPGKAPKLLIYAASSLQYGVPSRFSGSGSGTDFTLTISSLQPEDFATYYCQQSVGLSFGGGTKVEIKR , thanks.
Key: 9.97
